# protocol: DDI study: pharmacokinetics of fedratinib in rats with or without antifungal drugs
# Type: in vivo, Sprague-Dawley (SD) rats
# details: male, Sprague-Dawley, rat, plasma, po, 40 mg/kg, 40 mg/kg fedratinib oral gavage, Group C: 20 mg/kg posaconazole 30 min before, n = 6, Mean ± SD, read-out: MRT0→t
# Description: The UPLC-MS/MS procedures were developed and validated to detect fedratinib concentration in plasma to support an investigational study in healthy male Sprague-Dawley (SD) rats (weighing 200 ± 20 g), which were purchased from Laboratory Animal Center of Wenzhou Medical University (Wenzhou, China). The protocols and procedures of the animal experiment were checked in accordance with the regulations defined by Wenzhou Medical University Animal Care and Use Committee (wydw 2018-0002). […]
parameter: MRT last
Number first, unit second.

Input line: Given Cc1cnc(Nc2ccc(OCCN3CCCC3)cc2)nc1Nc1cccc(S(=O)(=O)NC(C)(C)C)c1 [Fedratinib] , state its recorded MRT last.
Output line: 14.3 h

###

# protocol: DDI study: pharmacokinetics of fedratinib in rats with or without antifungal drugs
# Type: in vivo, Sprague-Dawley (SD) rats
# details: male, Sprague-Dawley, rat, plasma, po, 40 mg/kg, 40 mg/kg fedratinib oral gavage, Group D: 20 mg/kg fluconazole 30 min before, n = 6, Mean ± SD, read-out: CLz/F (converted)
parameter: CL/F (mL/min/kg)
// units = mL/min/kg; emit number, no label

Input line: Given Cc1cnc(Nc2ccc(OCCN3CCCC3)cc2)nc1Nc1cccc(S(=O)(=O)NC(C)(C)C)c1 [Fedratinib] , state its recorded CL/F.
Output line: 176

###

# protocol: DDI study: pharmacokinetics of fedratinib in rats with or without antifungal drugs
# Assay type: in vivo, Sprague-Dawley (SD) rats
# details: male, Sprague-Dawley, rat, plasma, po, 40 mg/kg, 40 mg/kg fedratinib oral gavage, Group B: 20 mg/kg isavuconazole 30 min before, n = 6, Mean ± SD, read-out: MRT0→t
parameter: MRT last (h)
// units = h; emit number, no label

Input line: Given Cc1cnc(Nc2ccc(OCCN3CCCC3)cc2)nc1Nc1cccc(S(=O)(=O)NC(C)(C)C)c1 , state its recorded MRT last.
Output line: 14.9

###

# protocol: DDI study: pharmacokinetics of fedratinib in rats with or without antifungal drugs
# Type: in vivo, Sprague-Dawley (SD) rats
# details: male, Sprague-Dawley, rat, plasma, po, 40 mg/kg, 40 mg/kg fedratinib oral gavage, Group D: 20 mg/kg fluconazole 30 min before, n = 6, Mean ± SD
parameter: Cmax
Number first, unit second.

Input line: Given Cc1cnc(Nc2ccc(OCCN3CCCC3)cc2)nc1Nc1cccc(S(=O)(=O)NC(C)(C)C)c1 , state its recorded Cmax.
Output line: 232 ng/mL

###

# protocol: DDI study: pharmacokinetics of fedratinib in rats with or without antifungal drugs
# Assay type: in vivo, Sprague-Dawley (SD) rats
# details: male, Sprague-Dawley, rat, plasma, po, 40 mg/kg, 40 mg/kg fedratinib oral gavage, Group B: 20 mg/kg isavuconazole 30 min before, n = 6, Mean ± SD
# Description: The UPLC-MS/MS procedures were developed and validated to detect fedratinib concentration in plasma to support an investigational study in healthy male Sprague-Dawley (SD) rats (weighing 200 ± 20 g), which were purchased from Laboratory Animal Center of Wenzhou Medical University (Wenzhou, China). The protocols and procedures of the animal experiment were checked in accordance with the regulations defined by Wenzhou Medical University Animal Care and Use Committee (wydw 2018-0002). […]
parameter: half-life

Input line: Given Cc1cnc(Nc2ccc(OCCN3CCCC3)cc2)nc1Nc1cccc(S(=O)(=O)NC(C)(C)C)c1 [Fedratinib] , state its recorded half-life.
Output line: 11.1 h

###

# protocol: DDI study: pharmacokinetics of fedratinib in rats with or without antifungal drugs
# Format: in vivo, Sprague-Dawley (SD) rats
# details: male, Sprague-Dawley, rat, plasma, po, 40 mg/kg, 40 mg/kg fedratinib oral gavage, Group B: 20 mg/kg isavuconazole 30 min before, n = 6, Mean ± SD
parameter: AUC(0-inf) (µg·h/mL)
// units = µg·h/mL; emit number, no label

Input line: Given Cc1cnc(Nc2ccc(OCCN3CCCC3)cc2)nc1Nc1cccc(S(=O)(=O)NC(C)(C)C)c1 , state its recorded AUC(0-inf).
Output line: 2.72
